# Test system: LCLC-103H
# PROTOCOL DETAILS: relative viability (nuclei count vs DMSO), 5 days (fraction); higher = more cells survive
# MEASUREMENT PARAMETERS: first compound 2.53 µM
ENDPOINT: relative viability
Answer with a number only.

Record excerpt, results attached:
Cc1cnc(-c2cnc(NCCNc3ccc(C#N)cn3)nc2-c2ccc(Cl)cc2Cl)[nH]1 + COc1cc2c(Oc3ccc(NC(=O)C4(C(=O)Nc5ccc(F)cc5)CC4)cc3F)ccnc2cc1OCCCN1CCOCC1 [Foretinib] (partner 0.25 µM) : 0.79
Cc1cnc(-c2cnc(NCCNc3ccc(C#N)cn3)nc2-c2ccc(Cl)cc2Cl)[nH]1 + N=C(N)NC(=N)NCCc1ccccc1 [Phenformin] (partner 250 µM) : 0.3
O=c1[nH]c2ccccc2n1C1CCN(CCCC(c2ccc(F)cc2)c2ccc(F)cc2)CC1 [Pimozide] + CS(=O)(=O)N1CCN(Cc2cc3nc(-c4cccc5[nH]ncc45)nc(N4CCOCC4)c3s2)CC1 [Pictilisib] (partner 1 µM) : 0.574
Cc1cnc(-c2cnc(NCCNc3ccc(C#N)cn3)nc2-c2ccc(Cl)cc2Cl)[nH]1 + Cc1nc(Nc2ncc(C(=O)Nc3c(C)cccc3Cl)s2)cc(N2CCN(CCO)CC2)n1 [Dasatinib] (partner 0.075 µM) : 0.433
O=c1[nH]c2ccccc2n1C1CCN(CCCC(c2ccc(F)cc2)c2ccc(F)cc2)CC1 [Pimozide] + Cc1nc(Nc2ncc(C(=O)Nc3c(C)cccc3Cl)s2)cc(N2CCN(CCO)CC2)n1 [Dasatinib] (partner 0.075 µM) : 0.518
O=c1[nH]c2ccccc2n1C1CCN(CCCC(c2ccc(F)cc2)c2ccc(F)cc2)CC1 [Pimozide] + O=C(CCCCCCC(=O)Nc1ccccc1)NO [Vorinostat] (partner 1 µM) : 0.759
O=c1[nH]c2ccccc2n1C1CCN(CCCC(c2ccc(F)cc2)c2ccc(F)cc2)CC1 [Pimozide] + COc1cc2c(Oc3ccc(NC(=O)C4(C(=O)Nc5ccc(F)cc5)CC4)cc3F)ccnc2cc1OCCCN1CCOCC1 [Foretinib] (partner 0.25 µM) : 0.678
O=c1[nH]c2ccccc2n1C1CCN(CCCC(c2ccc(F)cc2)c2ccc(F)cc2)CC1 [Pimozide] + CC(=O)c1c(C)c2cnc(Nc3ccc(N4CCNCC4)cn3)nc2n(C2CCCC2)c1=O [Palbociclib] (partner 0.5 µM) : 0.444

# next molecule below
Request: Look up relative viability for this molecule: O=c1[nH]c2ccccc2n1C1CCN(CCCC(c2ccc(F)cc2)c2ccc(F)cc2)CC1 [Pimozide] + CC(C)C[C@H](NC(=O)[C@H](Cc1ccccc1)NC(=O)c1cnccn1)B(O)O [Bortezomib] (partner 0.002 µM)
Response: 1.08

* * *

# System: NCI-H441
# PROTOCOL DETAILS: relative viability (nuclei count vs DMSO), 5 days (fraction); higher = more cells survive
# MEASUREMENT PARAMETERS: first compound 0.1581 µM
ENDPOINT: relative viability
Answer with a number only.

Record excerpt, results attached:
Nc1ccn([C@@H]2O[C@H](CO)[C@@H](O)[C@@H]2O)c(=O)n1 [Cytarabine] + Cc1nc(Nc2ncc(C(=O)Nc3c(C)cccc3Cl)s2)cc(N2CCN(CCO)CC2)n1 [Dasatinib] (partner 0.075 µM) : 0.324
COc1cc2nccc(Oc3ccc(NC(=O)Nc4cc(C)on4)c(Cl)c3)c2cc1OC [Tivozanib] + NC(=O)Nc1cc(-c2cccc(F)c2)sc1C(=O)N[C@H]1CCCNC1 [AZD7762] (partner 0.2 µM) : 1.35
COc1cc2nccc(Oc3ccc(NC(=O)Nc4cc(C)on4)c(Cl)c3)c2cc1OC [Tivozanib] + Nc1nc2[nH]cc(CCc3ccc(C(=O)N[C@@H](CCC(=O)O)C(=O)O)cc3)c2c(=O)[nH]1 [Pemetrexed] (partner 0.2 µM) : 0.249

# next compound below
Request: Entry COc1cc2nccc(Oc3ccc(NC(=O)Nc4cc(C)on4)c(Cl)c3)c2cc1OC [Tivozanib] + COc1cc2c(Oc3ccc(NC(=O)C4(C(=O)Nc5ccc(F)cc5)CC4)cc3F)ccnc2cc1OCCCN1CCOCC1 [Foretinib] (partner 0.25 µM) , system NCI-H441: what relative viability was measured?
Response: 1.11

* * *

# Tested on: NCI-H322M
# PROTOCOL DETAILS: relative viability (nuclei count vs DMSO), 5 days (fraction); higher = more cells survive
# MEASUREMENT PARAMETERS: first compound 2.53 µM
Quick reference for relative viability among some compounds
Answer with a number only.

Record excerpt, results attached:
O=c1[nH]c2ccccc2n1C1CCN(CCCC(c2ccc(F)cc2)c2ccc(F)cc2)CC1 [Pimozide] + CC1(C)CCC(c2ccc(Cl)cc2)=C(CN2CCN(c3ccc(C(=O)NS(=O)(=O)c4ccc(N[C@H](CCN5CCOCC5)CSc5ccccc5)c(S(=O)(=O)C(F)(F)F)c4)cc3)CC2)C1 [Navitoclax] (partner 0.5 µM) : 1.21
O=c1[nH]c2ccccc2n1C1CCN(CCCC(c2ccc(F)cc2)c2ccc(F)cc2)CC1 [Pimozide] + CS(=O)(=O)CCNCc1ccc(-c2ccc3ncnc(Nc4ccc(OCc5cccc(F)c5)c(Cl)c4)c3c2)o1 [Lapatinib] (partner 2 µM) : 0.635
Cc1cnc(-c2cnc(NCCNc3ccc(C#N)cn3)nc2-c2ccc(Cl)cc2Cl)[nH]1 + Cc1cc(Nc2cc(N3CCN(C)CC3)nc(Sc3ccc(NC(=O)C4CC4)cc3)n2)n[nH]1 [Tozasertib] (partner 0.1 µM) : 0.466

Request: Look up relative viability for this compound: Cc1cnc(-c2cnc(NCCNc3ccc(C#N)cn3)nc2-c2ccc(Cl)cc2Cl)[nH]1 + N=C(N)NC(=N)NCCc1ccccc1 [Phenformin] (partner 250 µM)
Response: 0.931

* * *

# Test system: LC-2-ad
# PROTOCOL DETAILS: relative viability (nuclei count vs DMSO), 5 days (fraction); higher = more cells survive
# MEASUREMENT PARAMETERS: first compound 0.253 µM
ENDPOINT: relative viability
Answer with a number only.

Request: Entry O=c1[nH]c2ccccc2n1C1CCN(CCCC(c2ccc(F)cc2)c2ccc(F)cc2)CC1 [Pimozide] + Cc1nc(NC(=O)N2CCC[C@H]2C(N)=O)sc1-c1ccnc(C(C)(C)C(F)(F)F)c1 [Alpelisib] (partner 2 µM) , system LC-2-ad: what relative viability was measured?
Response: 0.847

Request: Entry O=c1[nH]c2ccccc2n1C1CCN(CCCC(c2ccc(F)cc2)c2ccc(F)cc2)CC1 [Pimozide] + Nc1nc2[nH]cc(CCc3ccc(C(=O)N[C@@H](CCC(=O)O)C(=O)O)cc3)c2c(=O)[nH]1 [Pemetrexed] (partner 0.2 µM) , system LC-2-ad: what relative viability was measured?
Response: 0.288

* * *

# System: EKVX
# PROTOCOL DETAILS: relative viability (nuclei count vs DMSO), 5 days (fraction); higher = more cells survive
# MEASUREMENT PARAMETERS: first compound 0.0002 µM
Quick reference for relative viability among some molecules
Answer with a number only.

Record excerpt, results attached:
CC(=O)O[C@@]12CO[C@@H]1C[C@H](O)[C@@]1(C)C(=O)[C@H](O)C3=C(C)[C@@H](OC(=O)[C@H](O)[C@@H](NC(=O)OC(C)(C)C)c4ccccc4)C[C@@](O)([C@@H](OC(=O)c4ccccc4)[C@H]21)C3(C)C [Docetaxel] + Cc1nc(NC(=O)N2CCC[C@H]2C(N)=O)sc1-c1ccnc(C(C)(C)C(F)(F)F)c1 [Alpelisib] (partner 2 µM) : 0.884
CC(=O)O[C@@]12CO[C@@H]1C[C@H](O)[C@@]1(C)C(=O)[C@H](O)C3=C(C)[C@@H](OC(=O)[C@H](O)[C@@H](NC(=O)OC(C)(C)C)c4ccccc4)C[C@@](O)([C@@H](OC(=O)c4ccccc4)[C@H]21)C3(C)C [Docetaxel] + C[C@]1(O)C[C@@H](c2nc(-c3ccc4ccc(-c5ccccc5)nc4c3)c3c(N)nccn32)C1 [Linsitinib] (partner 1 µM) : 0.899

Request: Look up relative viability for this molecule: CC(=O)O[C@@]12CO[C@@H]1C[C@H](O)[C@@]1(C)C(=O)[C@H](O)C3=C(C)[C@@H](OC(=O)[C@H](O)[C@@H](NC(=O)OC(C)(C)C)c4ccccc4)C[C@@](O)([C@@H](OC(=O)c4ccccc4)[C@H]21)C3(C)C [Docetaxel] + COc1cc2c(Oc3ccc(NC(=O)C4(C(=O)Nc5ccc(F)cc5)CC4)cc3F)ccnc2cc1OCCCN1CCOCC1 [Foretinib] (partner 0.25 µM)
Response: 1.07

* * *

# Tested on: NCI-H2228
# PROTOCOL DETAILS: relative viability (nuclei count vs DMSO), 5 days (fraction); higher = more cells survive
# MEASUREMENT PARAMETERS: first compound 0.01581 µM
ENDPOINT: relative viability

Record excerpt, results attached:
Nc1ccn([C@@H]2O[C@H](CO)[C@@H](O)[C@@H]2O)c(=O)n1 [Cytarabine] + CS(=O)(=O)N1CCN(Cc2cc3nc(-c4cccc5[nH]ncc45)nc(N4CCOCC4)c3s2)CC1 [Pictilisib] (partner 1 µM) : 0.188
COc1cc2nccc(Oc3ccc(NC(=O)Nc4cc(C)on4)c(Cl)c3)c2cc1OC [Tivozanib] + COc1cccc2cc(-c3nc([C@H]4CC[C@H](C(=O)O)CC4)n4ncnc(N)c34)[nH]c12 [OSI-027] (partner 0.5 µM) : 0.54

# next compound below
Request: Look up relative viability for this compound: Nc1ccn([C@@H]2O[C@H](CO)[C@@H](O)[C@@H]2O)c(=O)n1 [Cytarabine] + CC(=O)c1c(C)c2cnc(Nc3ccc(N4CCNCC4)cn3)nc2n(C2CCCC2)c1=O [Palbociclib] (partner 0.5 µM)
Response: 0.343

Hello, the source for this data is the supplement of paper PMC10307832, in case you need it.
